# ASSAY TEXT: Water solubility at 20° C.
ENDPOINT NAME: Water solubility at 20° C. (g/salt/100 g water)
Give the value, in units of g/salt/100 g water, as a plain number.

Below are worked cases with known answers.
{"COMPOUND": "C=C(C)C(=O)[O-].[Na+] [Sodium methacrylate]", "READOUT UNIT": "g/salt/100 g water", "Water solubility at 20° C.": 95.3}
{"COMPOUND": "C=C(C)C(=O)O [Barium dimethacrylate]", "READOUT UNIT": "g/salt/100 g water", "Water solubility at 20° C.": 40.5}

Value of Water solubility at 20° C. reported for the compound C=C(C)C(=O)O [Strontium dimethacrylate] is 27.5

Value of Water solubility at 20° C. reported for the compound C=C(C)C(=O)[O-].[K+] [Potassium methacrylate] is 101.8

Value of Water solubility at 20° C. reported for the compound C=C(C)C(=O)[O-].[Li+] [Lithium methacrylate] is 87.5
